Listed molecules paired with reported survival
# Tested on: Wild type
# run.description: S. aureus survival, RN4220 and DeltatarO strains – OD600, teichoic acid synthesis inhibitors, primary screen (AID 463173)
# assay.context: S. aureus RN4220 wild type/DeltatarO growth, OD600, 18 h, stronger effect = lower value, screened at 18.75 µg/mL (by protocol)
About 1,700 (3.3%) of roughly 52,000 compounds were called active. This excerpt belongs to a sample that is enriched for actives.
Expressed in %, but write only the number.

As a guide, the following entries are already answered.
>>> meas_value("COc1cccc(OCc2nc3ccccc3n2CCOc2ccc(C)cc2)c1")
62
>>> meas_value("Cc1ccc(C)c(OCc2nc3ccccc3n2C)c1")
85

For reference, reported survival for "Cc1ccc(SCc2nc(-c3ccc(C(=O)Nc4cc(C)ccc4C)cc3)oc2C)cc1" stands at 129

For reference, reported survival for "O=C(CSc1nc2cc3ccccc3cc2[nH]1)Nc1ccc(F)cc1" stands at 76

For reference, reported survival for "COc1ccccc1N1CCN(CC(=O)N2CCCC2)CC1" stands at 94

For reference, reported survival for "O=C(NCCc1ccc(Cl)cc1)c1ccc2c(c1)N(Cc1ccc(F)cc1)C(=O)CS2" stands at 10

For reference, reported survival for "COc1cc(NC(=O)C2CCN(c3cnc4ccccc4n3)CC2)cc(OC)c1OC" stands at -6

For reference, reported survival for "Cc1ccc(OCc2nc3ccccc3n2CCOc2ccc(Cl)cc2)cc1" stands at 26

For reference, reported survival for CCCC(C)C(=O)Nc1nnc(C(F)(F)F)s1 (centres undefined) stands at 100

For reference, reported survival for Cc1c2cnn(-c3ccccc3)c(=O)c2c(C)n1C(C)C(=O)NCc1cccc(Br)c1 (centres undefined) stands at 71

For reference, reported survival for "CC(C)N(C(=O)Cn1cc(SCC(=O)Nc2ccccc2C(F)(F)F)c2ccccc21)C(C)C" stands at 105

###

# Test system: Wild type
# run.description: S. aureus survival, RN4220 and DeltatarO strains – OD600, teichoic acid synthesis inhibitors, primary screen (AID 463173)
# assay.context: S. aureus RN4220 wild type/DeltatarO growth, OD600, 18 h, stronger effect = lower value, screened at 18.75 µg/mL (by protocol)
About 1,700 (3.3%) of roughly 52,000 compounds were called active. The full list was thinned out, with actives kept by preference.
measurement.kind: survival (%)
Expressed in %, but write only the number.

>>> meas_value("O=C(NC1CC(=O)N(c2ccccc2)C1)c1ccc(S(=O)(=O)N2CCCC2)cc1 (stereo not given)")
133

For reference, reported survival for "CC(C)c1ccc(Nc2c(-c3ccccc3O)nc3cnccn23)cc1" stands at 61

###

# Tested on: Wild type
# run.description: S. aureus survival, RN4220 and DeltatarO strains – OD600, teichoic acid synthesis inhibitors, primary screen (AID 463173)
# assay.context: S. aureus RN4220 wild type/DeltatarO growth, OD600, 18 h, stronger effect = lower value, screened at 18.75 µg/mL (by protocol)
Hit rate of the full screen: of about 52,000 compounds, about 1,700 (3.3%) were called active. Only a selection was taken, and actives are over-represented in it overall.
measurement.kind: survival (%)
Expressed in %, but write only the number.

For reference, reported survival for "CCOc1ccc(C(=O)Nc2ccccc2C(=O)OCc2cc(=O)n3nc(C4CC4)sc3n2)cc1" stands at 78

For reference, reported survival for "CCc1ccccc1NC(=O)Cn1nnc(C(=O)Nc2ccc(OC)c(OC)c2)c1N" stands at 76

For reference, reported survival for CCC(C)NC(=O)c1c(C)oc2nc(C)nc(N3CCOCC3)c12 (centres undefined) stands at 88

For reference, reported survival for "COc1ccc(CNC(=O)Cn2c(=O)oc3cc(S(=O)(=O)N4CCCC4)ccc32)cc1" stands at 91

For reference, reported survival for "Cc1ccc(-n2nnnc2CNC(=O)c2cc(C(F)(F)F)cc(C(F)(F)F)c2)cc1C" stands at -3

For reference, reported survival for "Nc1ccc(N2CCN(c3ncc(C(F)(F)F)cc3Cl)CC2)c(C(F)(F)F)c1" stands at -14

For reference, reported survival for "CC(C)CC(=O)Nc1c(C(=O)N2CCN(c3ccccc3)CC2)oc2ccccc12" stands at 96

For reference, reported survival for "O=C(NCc1ccccc1)c1nc[nH]c1C(=O)NCc1ccccc1" stands at 123

For reference, reported survival for "Cc1ccccc1Cn1c(CN2CCC(C(=O)NCCc3ccccc3)CC2)cc2ccccc21" stands at 110

###

Listed compounds paired with reported survival
# Tested on: Wild type
# run.description: S. aureus survival, RN4220 and DeltatarO strains – OD600, teichoic acid synthesis inhibitors, primary screen (AID 463173)
# assay.context: S. aureus RN4220 wild type/DeltatarO growth, OD600, 18 h, stronger effect = lower value, screened at 18.75 µg/mL (by protocol)
The campaign covered roughly 52,000 compounds. About 1,700 (3.3%) were called active. For the sample, actives were picked, then their nearest neighbours and some compounds at random.

As a guide, the following entries are already answered.
>>> meas_value("COc1ccc(S(=O)(=O)n2nc(C)c(S(=O)(=O)N3CCC(C)CC3)c2C)cc1OC")
"81% (inactive)"
>>> meas_value("COc1ccc(-n2ncc3c(NCCCOC(C)C)ncnc32)cc1")
"-2% (active)"
>>> meas_value("COc1ccc(OC)c(Nc2ncnc3c2cnn3-c2cccc(Cl)c2)c1")
"64% (inactive)"

Now for another entry.
For reference, reported survival for Cc1ccc(S(=O)(=O)Nc2nc3n(n2)C(c2ccc(Cl)cc2)C=C(c2ccccc2)N3)cc1 (centres undefined) stands at -4% (active)

###

Listed molecules paired with reported survival
# Tested on: Wild type
# run.description: S. aureus survival, RN4220 and DeltatarO strains – OD600, teichoic acid synthesis inhibitors, primary screen (AID 463173)
# assay.context: S. aureus RN4220 wild type/DeltatarO growth, OD600, 18 h, stronger effect = lower value, screened at 18.75 µg/mL (by protocol)
The campaign covered roughly 52,000 compounds. About 1,700 (3.3%) were called active. What follows is part of a selection rich in actives, with near analogues and random picks from the rest.
Expressed in %, but write only the number.

>>> meas_value("COc1cccc(-c2cc(C(=O)Nc3cnn(Cc4ccc(Cl)cc4Cl)c3)no2)c1")
112
>>> meas_value("Cc1cc(C)n(-c2nc3ccccc3nc2Nc2ccc(N(C)C)cc2)n1")
2
>>> meas_value("CC(C)(C)OC(=O)N1CCC(c2c(C(=O)N3CCN(c4ccccn4)CC3)cnn2-c2ccc(F)cc2F)CC1")
71
>>> meas_value("CC(C)(C)OC(=O)N1CCC(c2c(C(=O)N3CCN(c4ncccn4)CC3)cnn2-c2ccc(F)cc2F)CC1")
1
>>> meas_value("Cc1ccc(-n2ncc(C(=O)N3CCN(c4ncccn4)CC3)c2C2CCN(C(=O)OC(C)(C)C)CC2)cc1")
71
>>> meas_value("COc1ccccc1C(=O)Nc1c(C(=O)c2ccccc2)oc2ccccc12")
-3
>>> meas_value("Clc1ccc(CCNc2nc3ccccc3c3nc(-c4ccccc4)nn23)cc1")
38
>>> meas_value("Cc1ccc2c(c1)N(C(=O)Nc1cccc(C)c1C)CCO2")
89

Now for another entry.
For reference, reported survival for "COCCn1c(SCC(=O)Nc2cc(Cl)ccc2OC)nc2c([nH]c3ccccc32)c1=O" stands at 132

###

# Tested on: Wild type
# run.description: S. aureus survival, RN4220 and DeltatarO strains – OD600, teichoic acid synthesis inhibitors, primary screen (AID 463173)
# assay.context: S. aureus RN4220 wild type/DeltatarO growth, OD600, 18 h, screened at 18.75 µg/mL (by protocol)
The whole screen tested about 52,000 compounds, of which about 1,700 (3.3%) were called active. No stated cut-off is given here; in the data, active means survival mostly below about 52% (no sharp cut-off); inactive means mostly above about 56%. The sample holds actives, similar compounds and a random draw of the others, so the mix is not that of the screen.
Answer with one of the outcomes y (active), n (inactive)

Worked examples, 10 compounds total:
>>> qualitative_label("Cc1ccccc1C(=O)Nc1ccccc1C(=O)OCc1cc(=O)n2ccsc2n1")
"n"
>>> qualitative_label("CCn1ccc2cc(S(=O)(=O)N3CCC(C(=O)NCc4ccc(F)cc4)CC3)ccc21")
"n"
>>> qualitative_label("Cc1ccc(CNC(=O)c2ccc3c(c2)NC(=O)C(CS(=O)(=O)Cc2cccc(F)c2)N3)cc1 (stereo not given)")
"n"
>>> qualitative_label("Cc1ccc(C(=O)NCCSc2c(C)[nH]c3ccccc23)cc1C")
"y"
>>> qualitative_label("Cc1nn(-c2nc(-c3ccc(F)cc3)cc(C(F)(F)F)n2)c(C)c1Cl")
"y"
>>> qualitative_label("Cn1c(C(=O)NCc2ccc(Cl)cc2)cc2c(=O)n(C)c3ccccc3c21")
"n"
>>> qualitative_label("Cc1ccc(C(=O)NC(C)C)cc1C")
"n"
>>> qualitative_label("COc1ccc2c(c1)c1c(c(=O)n(Cc3ccccc3)c(=O)n1CC(=O)NCc1ccc(C)cc1)n2C")
"n"
>>> qualitative_label("Cc1cc(S(=O)(=O)N(C)CCc2ccccc2)ccc1-n1cnnn1")
"n"
>>> qualitative_label("CCc1cccc(NC(=O)CSc2nncn3c2cc2sccc23)c1")
"n"

Please look at the following compound next.
## Input // return assay outcome for "COc1ccc(OCCCn2c(C)nc3cc(C)c(C)cc32)cc1"
## Output n
